test.target: T1, human neuropeptide Y2 receptor (human, UniProt P49146 1-381)
T1 sequence (looked up): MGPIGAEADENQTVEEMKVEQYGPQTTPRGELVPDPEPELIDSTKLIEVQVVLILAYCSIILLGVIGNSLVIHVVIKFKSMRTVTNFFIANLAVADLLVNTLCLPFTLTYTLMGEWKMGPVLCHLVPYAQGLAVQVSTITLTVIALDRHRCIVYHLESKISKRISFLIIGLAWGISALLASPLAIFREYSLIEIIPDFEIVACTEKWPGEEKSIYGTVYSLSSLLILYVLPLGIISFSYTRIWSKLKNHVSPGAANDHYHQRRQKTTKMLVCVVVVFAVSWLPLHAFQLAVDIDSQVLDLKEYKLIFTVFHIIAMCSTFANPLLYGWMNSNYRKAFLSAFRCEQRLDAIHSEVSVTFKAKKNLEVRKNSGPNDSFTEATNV
run.description: cell-based or functional assay
*1 amine or outer side, *2 acyl side, *3 side chain or, on linkers, in order; H or OH if unused. Where no end group is shown, it is not given here. Side-chain parts run from the residue outwards. [ ]: non-standard residue; d: D form. The star is where a group is joined. C20 diacid = O=C(O)CCCCCCCCCCCCCCCCCCC(=O)*; γGlu = O=C(O)[C@H](CCC(=O)[*:2])N[*:1]; εLys = N[C@@H](CCCCN[*:1])C(=O)[*:2]; AEEA = NCCOCCOCC(=O)O; Aib = CC(C)(N)C(=O)O; Ahx = NCCCCCC(=O)O
Decision: EC50, CreLuc reporter, 100% hP beneath 70 nM gives true (1); EC50, CreLuc reporter, 100% hP meeting or exceeding 70 nM gives false (0).

binder="Y[Aib]EGTFTSDYSI[Aib]LEKQAQ[Aib]AFVRHLINK([Ahx-γGlu-γGlu-γGlu-γGlu-γGlu-γGlu-C20 diacid])[Aib]TRQRY-NH2 [Compound 157]" category_label="false (0)"
binder="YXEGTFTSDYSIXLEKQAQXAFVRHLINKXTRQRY (Aib at 2, 20, 30; aMeL at 13; Lys29 epsilon-amino: C20DA-gGlu-gGlu-gGlu-gGlu-gGlu-gGlu-eLys; C-terminal amide) [Compound 150]" category_label="false (0)"
binder="YXEGTFTSDYSIXLDKQAQXAFVRHLINKXTRQRY (Aib at 2, 13, 20, 30; Lys29 epsilon-amino: C18DA-gGlu-gGlu-gGlu-gGlu-gGlu-gGlu-eLys; C-terminal amide) [Compound 105]" category_label="true (1)"
binder="YXEGTFTSDYSIALEKQAQXAFVRHLINKXTRQRY (Aib at 2, 20, 30; Lys29 epsilon-amino: C18DA-gGlu-gGlu-gGlu-gGlu-gGlu-gGlu-eLys; C-terminal amide) [Compound 165]" category_label="true (1)"
binder="YXEGTFTSDYSIXLEKQAEXAFVRHLINKXTRQRY (Aib at 2, 20, 30; aMeL at 13; Lys29 epsilon-amino: C20DA-gGlu-gGlu-gGlu-gGlu-gGlu-gGlu-eLys; C-terminal amide) [Compound 103]" category_label="false (0)"
binder="YXEGTFTSDYSIXLEKQAQXAFVRHLINKXTRQXY (Aib at 2, 13, 20, 30; dOR at 34; Lys29 epsilon-amino: C18DA-gGlu-gGlu-gGlu-gGlu-gGlu; C-terminal amide) [Compound 96]" category_label="false (0)"
binder="YXEGTFTSDYSIXLEKQAQXAFVRHLLNKXTRQRY (Aib at 2, 13, 20, 30; Lys29 epsilon-amino: C18DA-gGlu-gGlu-gGlu-gGlu-gGlu-gGlu-eLys; C-terminal amide) [Compound 107]" category_label="true (1)"
binder="YXEGTFTSDYAIXLEKQAQXAFVRHLINKXTRQRY (Aib at 2, 13, 20, 30; Lys29 epsilon-amino: C18DA-gGlu-gGlu-gGlu-gGlu-gGlu-gGlu-eLys; C-terminal amide) [Compound 142]" category_label="true (1)"
binder="Y[Aib]EGTFTSDYSI[Aib]LEKQAE[Aib]AFVRHLINK([εLys-γGlu-γGlu-AEEA-γGlu-γGlu-γGlu-C20 diacid])[Aib]TRQRY-NH2 [Compound 162]" category_label="true (1)"
binder="YXEGTFTSDYSIXLEKQRQXAFVRHLINKXTRQRY (Aib at 2, 13, 20, 30; Lys29 epsilon-amino: C18DA-gGlu-gGlu-gGlu-gGlu-gGlu-gGlu-eLys; C-terminal amide) [Compound 91]" category_label="true (1)"
binder="YXEGTFTSDYSIXLEKQAQXAFVRHAINKXTRQRY (Aib at 2, 13, 20, 30; Lys29 epsilon-amino: C18DA-gGlu-gGlu-gGlu-gGlu-gGlu-gGlu-eLys; C-terminal amide) [Compound 139]" category_label="true (1)"
binder="YXEGTFTSDYSIXLDKQAQXAFVRYLINKXTRQRY (Aib at 2, 13, 20, 30; Lys29 epsilon-amino: C18DA-gGlu-gGlu-gGlu-gGlu-gGlu-gGlu-eLys; C-terminal amide) [Compound 153]" category_label="true (1)"
